ASSAY_REMARKS: self-splicing fitness, log relative to wild type (ln ratio); higher = more splicing; Tetrahymena group I intron in knt gene, E. coli kanamycin selection, DiMSum; sequences stand for … in CUCUCU…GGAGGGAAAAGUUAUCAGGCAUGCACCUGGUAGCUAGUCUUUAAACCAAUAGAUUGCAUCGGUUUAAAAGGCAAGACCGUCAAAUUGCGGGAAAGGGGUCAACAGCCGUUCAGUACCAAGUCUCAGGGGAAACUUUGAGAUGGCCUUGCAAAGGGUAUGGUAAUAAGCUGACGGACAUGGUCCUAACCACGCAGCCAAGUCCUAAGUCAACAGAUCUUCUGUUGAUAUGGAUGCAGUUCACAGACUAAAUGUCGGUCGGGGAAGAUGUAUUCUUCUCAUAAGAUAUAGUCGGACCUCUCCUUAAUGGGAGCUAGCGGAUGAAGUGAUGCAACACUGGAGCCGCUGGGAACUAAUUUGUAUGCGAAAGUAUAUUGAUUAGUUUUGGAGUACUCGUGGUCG;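 further: selection with 25 µg/mL kanamycin versus none on LB agar overnight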
TEST_CONDITIONS: 30 °C
Let's look at some sequences and their measured self-splicing fitness (ln).
Could you keep your reply to the number by itself?

Examples with their reported self-splicing fitness (ln) follow.
> print(dat)
               residues  result.value
1  GAUAAGCAAUAUUACGGAUG         -2.76
2  AAGUAGCAAUAUUACGGAGG         -3.89
3  GGUCAGCAAUAUUACGCAAG         -1.92
4  CGAGAGCAAUAUUACGGAGU         -4.55
5  UCAAAGCAAUAUUACGCCUG        -0.562

Per the record, CGGCAGCAAUAUUACGUACU has self-splicing fitness (ln) of -0.872

Looking up CCUGAGCAAUAUUACGCAGG , I found its self-splicing fitness (ln) recorded as -2.64

src = the supplement of paper PMC7877785
